Target: T1, MBP-PupR C-terminal cell surface signaling domain (Pseudomonas capeferrum, UniProt Q52209 110-324)
T1 construct: PupR, inner membrane sigma regulator (anti-sigma factor) of Pseudomonas capeferrum; periplasmic C-terminal cell surface signaling domain; residues A240 to A300 are named as interface residues; A TEV site lies between MBP and the domain; the MBP fusion was used uncleaved in the ITC for solubility and stability; also called MBP-PupR CCSSD; PupR CCSSD; not shown: MBP, N-terminal, kept
T1 sequence: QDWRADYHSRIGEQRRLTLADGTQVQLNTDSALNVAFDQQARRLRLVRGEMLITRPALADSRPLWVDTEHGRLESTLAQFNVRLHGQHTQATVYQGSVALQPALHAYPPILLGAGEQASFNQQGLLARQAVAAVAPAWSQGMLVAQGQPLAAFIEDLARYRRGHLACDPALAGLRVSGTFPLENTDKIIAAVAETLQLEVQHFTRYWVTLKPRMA
Test: ITC; MBP-PupR CCSSD (140-230 µM) titrated into PupB NTSD mutants (20-70 µM); 15 °C; 25 mM HEPES pH 7.5, 400 mM LiCl, 10% glycerol; triplicate, global single-site analysis (NITPIC, SEDPHAT)
Conditions: both partners purified
observable: pKd
pKd field: float, defined as -log10 of concentration (mol/L).

Prompt: Could you share which pKd value was measured for PupB N-terminal signaling domain Q69K (domain or fragment, Pseudomonas capeferrum, PupB of Pseudomonas capeferrum, N-terminal signaling domain, 82 residues; also called PupB NTSD Q69K; Q79K (misprint in two places); source: pET41 GST-PupB NTSD plasmid) AQADFDIPAGPLAPALAHFGKSAHILLSYPTALTEGRSTSGLAGRFDIDQGLAILLAGTGLEASRGANASYSLQASASTG ?
Response: 5.81
